Measured Maximum inhibition rate (%), KU812 IL-5 production values are reported for all entries that follow.
- subject of test: T1, ST2 on KU812 cells (UniProt Q01638 19-556, limits assumed)
- T1 sequence (looked up): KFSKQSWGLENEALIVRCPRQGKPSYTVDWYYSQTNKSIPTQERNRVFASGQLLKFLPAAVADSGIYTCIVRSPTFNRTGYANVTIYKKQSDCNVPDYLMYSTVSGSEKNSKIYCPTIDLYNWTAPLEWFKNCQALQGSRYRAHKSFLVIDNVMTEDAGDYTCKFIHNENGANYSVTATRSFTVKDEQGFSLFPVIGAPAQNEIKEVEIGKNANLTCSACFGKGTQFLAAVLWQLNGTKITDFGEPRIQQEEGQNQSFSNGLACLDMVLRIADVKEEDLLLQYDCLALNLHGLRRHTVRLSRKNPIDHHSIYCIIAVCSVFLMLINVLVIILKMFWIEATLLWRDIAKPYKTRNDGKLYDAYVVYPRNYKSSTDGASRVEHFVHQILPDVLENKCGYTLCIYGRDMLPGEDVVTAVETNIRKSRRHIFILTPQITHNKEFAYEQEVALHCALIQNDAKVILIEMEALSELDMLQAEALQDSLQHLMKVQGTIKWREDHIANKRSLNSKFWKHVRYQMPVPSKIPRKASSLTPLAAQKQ
- test details: cell-based or functional assay
Field: numeric (%). Do not append units.

Example entries begin here.
binder	test value
5886-156H+L (antibody, V domains shown, murine antibody) VH: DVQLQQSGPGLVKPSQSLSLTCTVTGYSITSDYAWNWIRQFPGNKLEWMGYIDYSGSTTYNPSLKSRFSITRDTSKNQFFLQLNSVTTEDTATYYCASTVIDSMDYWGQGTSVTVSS VL: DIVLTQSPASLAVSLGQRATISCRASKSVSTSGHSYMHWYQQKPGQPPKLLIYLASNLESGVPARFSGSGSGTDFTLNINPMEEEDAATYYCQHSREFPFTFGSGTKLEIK	84.2
5887-41H+L (antibody, V domains shown, murine antibody) VH: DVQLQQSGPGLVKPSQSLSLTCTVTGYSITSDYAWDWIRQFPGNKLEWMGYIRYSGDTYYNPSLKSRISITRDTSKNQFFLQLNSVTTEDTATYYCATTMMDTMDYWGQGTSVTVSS VL: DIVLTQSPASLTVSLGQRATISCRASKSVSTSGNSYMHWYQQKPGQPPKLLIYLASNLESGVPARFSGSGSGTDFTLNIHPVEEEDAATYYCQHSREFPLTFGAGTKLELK	79.2
5888-116H1+L1 (antibody, V domains shown, murine antibody) VH: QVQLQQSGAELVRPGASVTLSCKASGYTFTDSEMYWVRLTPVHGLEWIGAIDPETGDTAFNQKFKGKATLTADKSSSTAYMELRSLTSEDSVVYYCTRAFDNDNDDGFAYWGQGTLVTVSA VL: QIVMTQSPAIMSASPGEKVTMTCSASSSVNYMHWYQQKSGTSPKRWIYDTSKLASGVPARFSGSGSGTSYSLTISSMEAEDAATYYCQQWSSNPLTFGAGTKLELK	81.4

Now look at this entry.
Asked: What value of Maximum inhibition rate (%), KU812 IL-5 production has been recorded for this entry: 5888-357H+L (antibody, V domains shown, murine antibody) VH: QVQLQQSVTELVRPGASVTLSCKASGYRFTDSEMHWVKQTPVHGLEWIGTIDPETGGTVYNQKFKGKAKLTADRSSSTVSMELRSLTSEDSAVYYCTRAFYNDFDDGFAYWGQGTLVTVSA VL: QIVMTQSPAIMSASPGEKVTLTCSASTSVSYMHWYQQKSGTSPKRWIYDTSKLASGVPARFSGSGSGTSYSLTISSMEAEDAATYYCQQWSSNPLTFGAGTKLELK
Given back: 71
